Source listed as paper PMC6146385.

# Measured on: SULT1E1 (Homo sapiens)
# Sequence (P49888 whole entry): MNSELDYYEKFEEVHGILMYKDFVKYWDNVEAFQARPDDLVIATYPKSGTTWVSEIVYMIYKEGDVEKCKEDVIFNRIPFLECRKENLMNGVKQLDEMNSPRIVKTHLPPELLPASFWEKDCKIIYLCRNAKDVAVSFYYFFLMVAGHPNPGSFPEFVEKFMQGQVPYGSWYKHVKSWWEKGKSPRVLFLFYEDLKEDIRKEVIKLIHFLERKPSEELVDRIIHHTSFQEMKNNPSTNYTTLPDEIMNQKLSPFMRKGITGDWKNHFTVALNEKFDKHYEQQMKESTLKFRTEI
# Test method notes: DHEA sulfation kinetics by recombinant SULT1E1
# Type: in vitro ADME
# Measurement setup: human, recombinant human SULT1E1 (rhSULT1E1), pH 7.4

{"Compound": "C[C@]12CC[C@H](O)CC1=CC[C@@H]1[C@@H]2CC[C@]2(C)C(=O)CC[C@@H]12 [DHEA, dehydroepiandrosterone]", "microsomal CLint": "4260 µL/min/mg"}

###

# Measured on: AB sulfation in HLC (SULT2A1) (Homo sapiens)
# Sequence (Q06520 whole entry): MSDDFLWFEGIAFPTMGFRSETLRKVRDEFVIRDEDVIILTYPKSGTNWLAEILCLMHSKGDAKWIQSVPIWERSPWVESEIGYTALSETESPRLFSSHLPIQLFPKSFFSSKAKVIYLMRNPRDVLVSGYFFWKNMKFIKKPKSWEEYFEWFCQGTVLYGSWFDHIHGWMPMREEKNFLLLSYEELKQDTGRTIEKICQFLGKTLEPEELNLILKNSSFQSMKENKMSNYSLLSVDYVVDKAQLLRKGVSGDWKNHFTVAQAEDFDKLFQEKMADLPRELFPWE

{"Compound": "C[C@]12CC[C@H](O)CC1=CC[C@@H]1[C@@H]2CC[C@]2(C)C(=O)CC[C@@H]12 [DHEA, dehydroepiandrosterone]", "IC50 [µM]": 1.88}
